Sourced from patent US20220040150A1

# Procedure Summary: Plasma levels of DMT after intravenous bolus plus continuous infusion (Gouzoulis-Mayfrank et al., 2005)
# Assay type: in vivo
# Condition Label: human, indicated by the very crude and possibly invalid plasma data, read-out: elimination half-life
Quantity Measured: half-life

Kindly note the recorded half-life for CN(C)CCc1c[nH]c2ccccc12 [DMT, N,N-dimethyltryptamine] , which is ~30 min

----------
# Procedure Summary: Plasma levels of DMT after intravenous bolus plus continuous infusion (Gouzoulis-Mayfrank et al., 2005)
# Assay type: in vivo
# Condition Label: human, in line with subjective effects and Strassman data, read-out: true half-life (likely)
Quantity Measured: half-life

Kindly note the recorded half-life for CN(C)CCc1c[nH]c2ccccc12 , which is ~10 min

----------
# Procedure Summary: DMT plasma concentrations after intravenous bolus, pilot study (Timmermann et al., 2019)
# Type: in vivo
# Condition Label: human, consistent with measurements of Timmermann 2019 and Strassman 1994, may represent redistribution, read-out: approximate elimination half-life
Quantity Measured: half-life

Kindly note the recorded half-life for CN(C)CCc1c[nH]c2ccccc12 , which is 5 to 10 min
